- System: rodent lifetime carcinogenesis bioassay, tumor incidence TD50
- ASSAY PROCEDURE: carcinogenic potency in animals, long-term in vivo studies, CPDB compilation (AID 1745844)
- COND: rat; strain Fischer 344; males; in drinking water; site: skin; lesion: keratoacanthoma; dosed 88 weeks; study length 92 weeks
READOUT LABEL: TD50 (mg/kg/day)
Give just the number in mg/kg/day; leave the unit off.

## Task Return reported TD50; argument: COc1cc(-c2ccc(N)c(OC)c2)ccc1N
## Result 9.13

====

- Test system: rodent lifetime carcinogenesis bioassay, tumor incidence TD50
- ASSAY PROCEDURE: carcinogenic potency in animals, long-term in vivo studies, CPDB compilation (AID 1745844)
- COND: mouse; strain ASH-CS1; males; in feed; site: lung; lesion: adenocarcinoma; dosed 80 weeks; study length 80 weeks
The source made the active and inactive calls. No rule for the calls is given here.
READOUT LABEL: TD50

## Task Return reported TD50; argument: CCN(Cc1cccc(S(=O)(=O)[O-])c1)c1ccc(C(=C2C=CC(=[N+](C)C)C=C2)c2ccc(N(CC)Cc3cccc(S(=O)(=O)O)c3)cc2)cc1
## Result 4660 mg/kg/day (inactive)
